# key: entry, value: melting point

Some solved entries appear below for comparison.
[
  {
    "molecule-smiles": "CCc1nc(C)cn2nc(-c3cc(=O)n4cc(N5CCN[C@@H](C)C5)ccc4n3)cc12",
    "melting point": "202 to 204 °C"
  },
  {
    "molecule-smiles": "COc1ccc(-c2cc(=O)n3cc(N4CC[C@H](N)C4)ccc3n2)cc1OC",
    "melting point": "148 to 151 °C"
  },
  {
    "molecule-smiles": "CC[C@H]1CN(c2cc(C)c3nc(-c4cc5c(C)nc(C)cn5n4)cc(=O)n3c2)CCN1",
    "melting point": "243 to 251 °C"
  }
]

Now look at this one.
Entry `Cc1cn2nc(-c3cc(=O)n4cc(N5CCN[C@@H](C)C5)cc(C)c4n3)cc2c(C)n1` — recorded melting point = 210 to 219 °C

---

experimental-endpoint: melting point

Some solved entries appear below for comparison.
[
  {
    "molecule-smiles": "CCc1nc(C)cn2nc(-c3cc(=O)n4cc(C5CCN(C6COC(C)(C)OC6)CC5)ccc4n3)cc12",
    "reported-value": "236 to 238 °C"
  },
  {
    "molecule-smiles": "CCc1nc(C)cn2nc(-c3cc(=O)n4cc(N5CCN(C6COC6)[C@H](C)C5)ccc4n3)cc12",
    "reported-value": "216 to 219 °C"
  },
  {
    "molecule-smiles": "CCCN1CCN(c2ccc3nc(-c4ccc(OC)c(OC)c4)cc(=O)n3c2)CC1",
    "reported-value": "185 to 189 °C"
  },
  {
    "molecule-smiles": "COc1ncc(-c2cc(=O)n3cc(N4CCNCC4)ccc3n2)cc1Cl",
    "reported-value": "201 to 209 °C"
  },
  {
    "molecule-smiles": "COc1ccc(-c2cc(=O)n3cc(N(C)[C@@H]4CCNC4)ccc3n2)cc1F",
    "reported-value": "143 to 147 °C"
  }
]

Entry `Cc1cn2cc(-c3cc(=O)n4cc(C5=CCNCC5)ccc4n3)cc2c(C)n1` — recorded melting point = 189 to 191 °C

Entry `COc1ccc(-c2cc(=O)n3cc(N4CCN[C@@H](C)C4)ccc3n2)c(OC)c1` — recorded melting point = 172 to 177 °C

Entry `COc1ccc(-c2cc(=O)n3cc(C4=CCN(CCO)CC4)ccc3n2)cc1OC` — recorded melting point = 134 to 137 °C

---

# System: SMN2 minigene mRNA (SMN2-A minigene) in HEK293H cells
# method-notes: SMN2 minigene mRNA splicing RT-qPCR assay in cultured cells
# Assay type: cell-based, human
# reported-conditions: Homo sapiens, HEK293-H; concentration increasing full length SMN2 mRNA 1.5-fold relative to vehicle-treated cells; HEK293H cells with SMN2-A minigene, 24 hours, 7-point concentration data; read-out: EC1.5x for production of full length SMN2 mRNA
# key: entry, value: EC (1.5-fold increase)

[
  {
    "molecule": "Cc1cn2nc(-c3cc(=O)n4cc(N5CCNC(C)(C)C5)cc(C)c4n3)cc2c(C)n1 [Compound 544]",
    "EC (1.5-fold increase)": "< 0.1 µM"
  },
  {
    "molecule": "COc1ccc(-c2cc(=O)n3cc(C4C[C@H]5CC[C@@H](C4)N5C)ccc3n2)cc1OC (stereo partly shown) [Compound 320]",
    "EC (1.5-fold increase)": "0.3 to 1 µM"
  },
  {
    "molecule": "Cc1cn2cc(-c3cc(=O)n4cc(C5CCN(CCO)CC5)ncc4n3)cc(C)c2n1 [Compound 594]",
    "EC (1.5-fold increase)": "0.1 to 0.3 µM"
  }
]

Now look at this one.
Entry COc1cnc(-c2cc(=O)n3cc(N4CCNCC4)ccc3n2)cc1OC [Compound 199] — recorded EC (1.5-fold increase) = 0.3 to 1 µM
